Method notes: Antidiabetic activity in 24 hrs serum-deprived rat glomerular mesangial cells assessed as reduction of high glucose-induced fibronectin and beta-actin expression ratio at 1 uM after 48 hrs by Western blot analysis relative to control
Assay type: functional
Ratio for assorted compounds
Test readout: Ratio

{"Compound": "CCOC(=O)C1CCC/C1=N\\NC(=O)CCn1cc(C)c(O)nc1=O (racemic)", "Observed result": 96.5}
{"Compound": "NNC(=O)CCn1ccc(N)nc1=O", "Observed result": 81.6}
{"Compound": "O=C(CCn1ccc(O)nc1=O)NN=C1C[C@@H](C(=O)O)[C@H](C(=O)O)C1 (racemic)", "Observed result": 115}
{"Compound": "CCOC(=O)[C@H]1CC(=O)C[C@H]1C(=O)OCC", "Observed result": 88.9}
{"Compound": "CCOC(=O)C1CCC/C1=N\\NC(=O)CCn1ccc(N)nc1=O (racemic)", "Observed result": 119}
{"Compound": "CCOC(=O)[C@H]1C/C(=N\\NC(=O)CCn2ccc(N)nc2=O)C[C@H]1C(=O)OCC (racemic)", "Observed result": 91}
{"Compound": "CCOC(=O)[C@H]1C/C(=N\\NC(=O)CCn2cc(C)c(O)nc2=O)C[C@H]1C(=O)OCC (racemic)", "Observed result": 97.9}
{"Compound": "O=C1C[C@@H](C(=O)O)[C@H](C(=O)O)C1 (racemic)", "Observed result": 149}
{"Compound": "O=C(CCn1ccc(O)nc1=O)NN=C1CCCC1", "Observed result": 84.8}
{"Compound": "CCOC(=O)[C@@H]1CC(=NNC(=O)CCn2ccc(O)nc2=O)C[C@H]1C(=O)OCC (racemic)", "Observed result": 132}
{"Compound": "O=C(CCn1ccc(O)nc1=O)N/N=C1\\C[C@H](C(=O)O)[C@H](C(=O)O)C1 (racemic)", "Observed result": 96.7}
{"Compound": "CCOC(=O)C1CCC/C1=N\\NC(=O)CCn1ccc(O)nc1=O (racemic)", "Observed result": 126}
{"Compound": "Cc1cn(CCC(=O)NN=C2CCCC2)c(=O)nc1O", "Observed result": 126}
{"Compound": "Cc1cn(CCC(=O)NN=C2C[C@@H](C(=O)O)[C@H](C(=O)O)C2)c(=O)nc1O (racemic)", "Observed result": 64.6}
{"Compound": "CCOC(=O)[C@@H]1CC(=O)C[C@H]1C(=O)OCC (racemic)", "Observed result": 86.3}
{"Compound": "O=C1C[C@H](C(=O)O)[C@H](C(=O)O)C1", "Observed result": 145}
{"Compound": "O=C1CCCC1", "Observed result": 114}

* * *

# Ratio annotations
Method notes: Antidiabetic activity in 24 hrs serum-deprived rat glomerular mesangial cells assessed as reduction of high glucose-induced fibronectin and beta-actin expression ratio at 5 uM after 48 hrs by Western blot analysis relative to control
Format: functional

{"Molecule": "O=C1C[C@@H](C(=O)O)[C@H](C(=O)O)C1 (racemic)", "Ratio": 124}
{"Molecule": "O=C1C[C@H](C(=O)O)[C@H](C(=O)O)C1", "Ratio": 121}
{"Molecule": "CCOC(=O)C1CCC/C1=N\\NC(=O)CCn1ccc(O)nc1=O (racemic)", "Ratio": 106}
{"Molecule": "CCOC(=O)[C@@H]1CC(=O)C[C@H]1C(=O)OCC (racemic)", "Ratio": 79.7}
{"Molecule": "O=C1CCCC1", "Ratio": 129}
{"Molecule": "CCOC(=O)[C@H]1C/C(=N\\NC(=O)CCn2ccc(O)nc2=O)C[C@H]1C(=O)OCC (racemic)", "Ratio": 76.5}
{"Molecule": "NNC(=O)CCn1ccc(O)nc1=O", "Ratio": 85.4}
{"Molecule": "Nc1ccn(CCC(=O)N/N=C2\\C[C@H](C(=O)O)[C@H](C(=O)O)C2)c(=O)n1 (racemic)", "Ratio": 113}
{"Molecule": "CCOC(=O)C1CCC/C1=N\\NC(=O)CCn1cc(C)c(O)nc1=O (racemic)", "Ratio": 91.6}
{"Molecule": "O=C(CCn1ccc(O)nc1=O)NN=C1C[C@@H](C(=O)O)[C@H](C(=O)O)C1 (racemic)", "Ratio": 96.9}
{"Molecule": "Cc1cn(CCC(=O)NN)c(=O)nc1O", "Ratio": 102}

* * *

Method notes: Antidiabetic activity in 24 hrs serum-deprived rat glomerular mesangial cells assessed as reduction of high glucose-induced fibronectin and beta-actin expression ratio at 5 uM after 48 hrs by Western blot analysis relative to control
Format: functional
The label Satisfied is reserved for Ratio strictly under 80; Not satisfied covers values equal to or above it.

{"Compound": "CCOC(=O)[C@H]1CC(=O)C[C@H]1C(=O)OCC", "Label class": "Not satisfied"}
{"Compound": "CCOC(=O)C1CCC/C1=N\\NC(=O)CCn1ccc(N)nc1=O (racemic)", "Label class": "Not satisfied"}
{"Compound": "CCOC(=O)[C@H]1C/C(=N\\NC(=O)CCn2ccc(N)nc2=O)C[C@H]1C(=O)OCC (racemic)", "Label class": "Not satisfied"}
{"Compound": "CCOC(=O)[C@@H]1CC(=NNC(=O)CCn2ccc(O)nc2=O)C[C@H]1C(=O)OCC (racemic)", "Label class": "Not satisfied"}
{"Compound": "CCOC(=O)C1CCCC1=O (racemic)", "Label class": "Not satisfied"}
{"Compound": "Nc1ccn(CCC(=O)NN=C2C[C@@H](C(=O)O)[C@H](C(=O)O)C2)c(=O)n1 (racemic)", "Label class": "Not satisfied"}
{"Compound": "O=C(CCn1ccc(O)nc1=O)NN=C1CCCC1", "Label class": "Satisfied"}
{"Compound": "Cc1cn(CCC(=O)N/N=C2\\C[C@H](C(=O)O)[C@H](C(=O)O)C2)c(=O)nc1O (racemic)", "Label class": "Satisfied"}
{"Compound": "O=C(CCn1ccc(O)nc1=O)N/N=C1\\C[C@H](C(=O)O)[C@H](C(=O)O)C1 (racemic)", "Label class": "Not satisfied"}

* * *

Method notes: Antidiabetic activity in 24 hrs serum-deprived rat glomerular mesangial cells assessed as reduction of high glucose-induced fibronectin and beta-actin expression ratio at 5 uM after 48 hrs by Western blot analysis relative to control
Format: functional

{"Molecule": "Cc1cn(CCC(=O)NN=C2CCCC2)c(=O)nc1O", "Ratio": 127}
{"Molecule": "CCOC(=O)[C@@H]1CC(=NNC(=O)CCn2cc(C)c(O)nc2=O)C[C@H]1C(=O)OCC (racemic)", "Ratio": 87.6}
{"Molecule": "NNC(=O)CCn1ccc(N)nc1=O", "Ratio": 80.8}
{"Molecule": "Cc1cn(CCC(=O)NN=C2C[C@@H](C(=O)O)[C@H](C(=O)O)C2)c(=O)nc1O (racemic)", "Ratio": 63.1}
{"Molecule": "Nc1ccn(CCC(=O)NN=C2CCCC2)c(=O)n1", "Ratio": 275}

* * *

Method notes: Antidiabetic activity in 24 hrs serum-deprived rat glomerular mesangial cells assessed as reduction of high glucose-induced fibronectin and beta-actin expression ratio at 1 uM after 48 hrs by Western blot analysis relative to control
Assay type: functional
Please assign NOT MET whenever Ratio is at or above 90, and MET whenever it is below.

{"Compound": "CCOC(=O)[C@H]1C/C(=N\\NC(=O)CCn2ccc(O)nc2=O)C[C@H]1C(=O)OCC (racemic)", "Label class": "NOT MET"}
{"Compound": "Cc1cn(CCC(=O)NN)c(=O)nc1O", "Label class": "NOT MET"}
{"Compound": "CCOC(=O)[C@@H]1CC(=NNC(=O)CCn2ccc(N)nc2=O)C[C@H]1C(=O)OCC (racemic)", "Label class": "NOT MET"}
{"Compound": "Cc1cn(CCC(=O)N/N=C2\\C[C@H](C(=O)O)[C@H](C(=O)O)C2)c(=O)nc1O (racemic)", "Label class": "MET"}
{"Compound": "Nc1ccn(CCC(=O)NN=C2CCCC2)c(=O)n1", "Label class": "NOT MET"}
{"Compound": "Nc1ccn(CCC(=O)NN=C2C[C@@H](C(=O)O)[C@H](C(=O)O)C2)c(=O)n1 (racemic)", "Label class": "NOT MET"}
{"Compound": "Nc1ccn(CCC(=O)N/N=C2\\C[C@H](C(=O)O)[C@H](C(=O)O)C2)c(=O)n1 (racemic)", "Label class": "NOT MET"}
{"Compound": "NNC(=O)CCn1ccc(O)nc1=O", "Label class": "MET"}
